B1: Natural cytotoxicity triggering receptor 3 (Homo sapiens), O14931 (parent)
chain: MAWMLLLILIMVHPGSCALWVSQPPEIRTLEGSSAFLPCSFNASQGRLAIGSVTWFRDEVVPGKEVRNGTPEFRGRLAPLASSRFLHDHQAELHIRDVRGHDASIYVCRVEVLGLGVGTGNGTRLVVEKEHPQLGAGTVLLLRAGFYAVSFLSVAVGSTVYYQGKCLTWKGPRRQLPAVVPAPLPPPCGSSAHLLPPVPGG

Variants of: B1
measurement-conditions: with bag6_human BAG6, P46379
Sequence (P46379 whole entry): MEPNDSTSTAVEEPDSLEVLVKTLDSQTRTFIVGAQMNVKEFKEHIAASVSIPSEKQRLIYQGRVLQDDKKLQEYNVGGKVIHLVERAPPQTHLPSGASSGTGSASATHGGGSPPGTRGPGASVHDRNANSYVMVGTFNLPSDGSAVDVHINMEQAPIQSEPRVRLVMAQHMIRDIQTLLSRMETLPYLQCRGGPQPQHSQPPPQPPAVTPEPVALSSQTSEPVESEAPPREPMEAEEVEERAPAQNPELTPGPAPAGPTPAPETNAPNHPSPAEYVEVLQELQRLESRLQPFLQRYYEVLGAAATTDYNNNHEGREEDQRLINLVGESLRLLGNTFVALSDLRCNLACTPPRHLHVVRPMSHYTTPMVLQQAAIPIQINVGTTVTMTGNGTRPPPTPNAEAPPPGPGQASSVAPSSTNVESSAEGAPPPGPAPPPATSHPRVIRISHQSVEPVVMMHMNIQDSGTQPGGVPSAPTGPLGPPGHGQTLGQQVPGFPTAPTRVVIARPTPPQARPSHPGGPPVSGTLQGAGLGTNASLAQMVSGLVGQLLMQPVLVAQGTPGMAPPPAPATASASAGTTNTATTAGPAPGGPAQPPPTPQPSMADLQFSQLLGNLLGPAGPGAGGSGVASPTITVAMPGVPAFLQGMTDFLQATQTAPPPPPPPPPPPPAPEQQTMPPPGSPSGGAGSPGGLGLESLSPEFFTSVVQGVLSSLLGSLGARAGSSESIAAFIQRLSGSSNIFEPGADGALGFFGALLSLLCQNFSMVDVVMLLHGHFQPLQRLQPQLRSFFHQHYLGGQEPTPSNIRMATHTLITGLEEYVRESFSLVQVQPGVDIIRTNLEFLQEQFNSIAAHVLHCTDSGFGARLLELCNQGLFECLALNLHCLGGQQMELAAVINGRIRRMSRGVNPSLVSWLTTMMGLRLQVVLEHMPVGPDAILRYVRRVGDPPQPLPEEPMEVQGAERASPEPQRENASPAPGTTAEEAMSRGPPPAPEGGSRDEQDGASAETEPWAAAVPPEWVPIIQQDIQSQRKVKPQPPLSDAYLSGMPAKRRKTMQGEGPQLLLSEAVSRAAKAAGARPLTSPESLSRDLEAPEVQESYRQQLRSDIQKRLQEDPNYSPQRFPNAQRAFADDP
readout-kind: effect of a mutation on the interaction

Solved cases below.
- residue-change: "N42Q;N68Q"
  reported-value: "with no effect"
- residue-change: "N42Q;N68Q;N121Q"
  reported-value: "with no effect"
- residue-change: "N68Q"
  reported-value: "with no effect"
- residue-change: "N68Q;N121Q"
  reported-value: "with no effect"
- residue-change: "N121Q"
  reported-value: "with no effect"
- residue-change: "N42Q;N121Q"
  reported-value: "with no effect"

Please fill in: effect of a mutation on the interaction reported for `N42Q` = with no effect
